assay: qHTS assay to identify small molecule agonists of the androgen receptor (AR) signaling pathway in the presence of an antagonist - cell viability counter screen (AID 1259379); conditions: MDA-kb2 viability, CellTiter-Fluor, 16 h; series mostly up to 92.4 µM; note: nearly all actives have a fitted effect of over 25% in size
Inconclusive results are not listed. Active and inactive are the calls of the source. Calls come from the whole dose curve; as a rule, active = well fitted cell-killing curve with a large enough effect in the repeat runs; inconclusive = weak or mixed curves, or effect the other way; inactive = flat fitted curve, though single readings scatter.
Outcomes: active, inactive

compound=C=C[C@@]1(C)CC(=O)[C@]2(O)[C@@]3(C)[C@@H](O)CCC(C)(C)[C@@H]3[C@H](O)[C@H](OC(C)=O)[C@@]2(C)O1 qualitative_label=active
compound=C=CCNCC=C qualitative_label=inactive
compound=Cc1ccc2c(c1)C(=O)OC2=O qualitative_label=inactive
compound=C/C=C/C(=O)N(CC)c1ccccc1C qualitative_label=inactive
compound=Cc1ccc(C)c(O)c1 qualitative_label=inactive
compound=NC[C@H](O)c1ccc(O)c(O)c1 qualitative_label=inactive
compound=C=CC(=O)OCCCC qualitative_label=inactive
compound=Cc1ccc(C(C)(C)C)c(O)c1 qualitative_label=inactive
compound=C=CCCCCCCCCCC qualitative_label=inactive
compound=C1COCCN1 qualitative_label=inactive
compound="CCCCCCCCCCC(CO)CCCCCCCC (stereo not drawn)" qualitative_label=inactive
compound=CN(Cc1cnc2nc(N)nc(N)c2n1)c1ccc(C(=O)N[C@@H](CCC(=O)O)C(=O)O)cc1 qualitative_label=inactive
compound=CC(C)=CCO qualitative_label=inactive
compound=CN1CCOCC1 qualitative_label=inactive
compound=c1ccc2c(c1)[nH]c1ccccc12 qualitative_label=inactive
compound=CCO[Si](CCCNC(N)=O)(OCC)OCC qualitative_label=inactive
compound=O=C(O)CCCC(=O)O qualitative_label=inactive
compound=C[C@]12C=CC(=O)C=C1CC[C@H]1[C@@H]3C[C@@H](O)[C@](O)(C(=O)CO)[C@@]3(C)C[C@H](O)[C@@]12F qualitative_label=inactive
compound=C[C@]12CC[C@@H]3c4ccc(O)cc4CC[C@H]3[C@@H]1CC[C@H]2O qualitative_label=inactive
compound=Nc1ccc(N)c(Cl)c1 qualitative_label=inactive
compound=CC(=O)Nc1ccc2c(c1)Cc1cc(NC(C)=O)ccc1-2 qualitative_label=inactive
compound=Cc1ccc(N)c([N+](=O)[O-])c1 qualitative_label=inactive
compound=O=C(O)CCCCCCCCCCCC(=O)O qualitative_label=inactive
compound=CC(=O)[C@@]1(O)CC[C@H]2[C@@H]3C[C@H](C)C4=CC(=O)C=C[C@]4(C)[C@@]3(F)[C@@H](O)C[C@@]21C qualitative_label=inactive
compound="CCc1cccc2c3c([nH]c12)C(CC)(CC(=O)O)OCC3 (stereo not drawn)" qualitative_label=inactive
compound=C=C[C@H]1CN2CC[C@H]1C[C@H]2[C@H](O)c1ccnc2ccc(OC)cc12 qualitative_label=inactive
compound=IC(I)I qualitative_label=inactive
compound=OC[C@@H](O)[C@@H](O[C@@H]1O[C@H](CO)[C@H](O)[C@H](O)[C@H]1O)[C@H](O)[C@@H](O)CO qualitative_label=inactive
compound=Oc1c(Cl)ccc(Cl)c1Cl qualitative_label=inactive
compound=CC(=O)O[C@]1(C(C)=O)CC[C@H]2[C@@H]3C=C(C)C4=CC(=O)CC[C@]4(C)[C@H]3CC[C@@]21C qualitative_label=inactive
compound=CN(C)CCCN1c2ccccc2Sc2ccc(Cl)cc21 qualitative_label=active
compound="FC(F)(F)C(Cl)Br (stereo not drawn)" qualitative_label=inactive
compound=CCCCCC=O qualitative_label=inactive

Source: PubChem BioAssay (Tox21)
